abundance fitness reference
B1: Connector enhancer of kinase suppressor of ras 2, residues 9 to 71; numbered along this chain, Q8WXI2 (parent)
chain: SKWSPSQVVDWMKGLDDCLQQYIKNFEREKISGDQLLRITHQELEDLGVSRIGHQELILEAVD

Variants of: B1
Run Description: abundance fitness (aPCA) (normalised: wild type 0, dead -1); higher = more abundant; growth selection in yeast, the domain comes from the species named
Condition Details: Homo sapiens
Quantity Measured: abundance fitness

{"Mutation Annotation": "V62S", "Measurement": -0.741}
{"Mutation Annotation": "R38H", "Measurement": -0.061}
{"Mutation Annotation": "L37Q", "Measurement": -0.151}
{"Mutation Annotation": "Q35L", "Measurement": -0.392}
{"Mutation Annotation": "L19R", "Measurement": -0.763}
{"Mutation Annotation": "E43C", "Measurement": -0.332}
{"Mutation Annotation": "T40C", "Measurement": -0.426}
{"Mutation Annotation": "I52M", "Measurement": -0.086}
{"Mutation Annotation": "R28L", "Measurement": -0.15}
{"Mutation Annotation": "E56V", "Measurement": -0.161}
{"Mutation Annotation": "V62W", "Measurement": -0.909}

# credit: the Human Domainome abundance scans (Beltran et al. 2025)
